Reference source: patent US20260242735A1

Give Mean % WT Binding for every item shown.
- Assay Target: human CD33 variant R122G (human, UniProt P20138 18-364)
- Sequence (P20138 18-364 R122G limits assumed): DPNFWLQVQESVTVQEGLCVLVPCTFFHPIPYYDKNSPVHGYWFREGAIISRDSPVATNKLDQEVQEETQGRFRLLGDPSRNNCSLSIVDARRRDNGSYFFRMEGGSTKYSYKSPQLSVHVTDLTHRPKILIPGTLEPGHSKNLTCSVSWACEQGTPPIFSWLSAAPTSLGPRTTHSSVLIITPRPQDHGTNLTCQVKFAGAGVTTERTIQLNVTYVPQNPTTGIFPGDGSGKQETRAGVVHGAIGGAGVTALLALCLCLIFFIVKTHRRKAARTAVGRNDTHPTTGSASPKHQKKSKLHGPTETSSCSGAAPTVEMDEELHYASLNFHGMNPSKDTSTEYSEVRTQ
- Method Notes: flow cytometry, IgG on cells expressing the mutant

Guide cases for Mean % WT Binding, answers given:
Binder	Reported Result
Refmab #3 (antibody, human IgG1, V domains shown, Tested in IgG format; human IgG1 Fc silent (PG-LALA)) VH: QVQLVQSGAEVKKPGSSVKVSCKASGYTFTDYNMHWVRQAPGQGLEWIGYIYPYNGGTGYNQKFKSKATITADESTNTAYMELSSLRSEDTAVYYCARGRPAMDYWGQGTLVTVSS VL: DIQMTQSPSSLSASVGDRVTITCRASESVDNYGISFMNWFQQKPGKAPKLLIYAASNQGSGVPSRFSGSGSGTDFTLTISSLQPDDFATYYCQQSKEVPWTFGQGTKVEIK	114 % of WT
Refmab #2 (antibody, human IgG1, V domains shown, Tested in IgG format; human IgG1 Fc silent (PG-LALA)) VH: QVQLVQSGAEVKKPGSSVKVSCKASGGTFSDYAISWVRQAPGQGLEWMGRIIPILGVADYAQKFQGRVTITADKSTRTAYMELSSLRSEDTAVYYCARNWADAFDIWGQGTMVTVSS VL: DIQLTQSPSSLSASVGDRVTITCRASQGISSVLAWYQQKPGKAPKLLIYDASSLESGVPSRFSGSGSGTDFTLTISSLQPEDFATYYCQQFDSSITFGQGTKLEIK	12.2 % of WT

Consider the record given below.
Exam item: Item under review: Refmab #1 (antibody, human IgG1, V domains shown, Tested in IgG format; human IgG1 (Absolute Antibody hP67.6, Cat. No. Ab00283-10.0); also called hP67.6) VH: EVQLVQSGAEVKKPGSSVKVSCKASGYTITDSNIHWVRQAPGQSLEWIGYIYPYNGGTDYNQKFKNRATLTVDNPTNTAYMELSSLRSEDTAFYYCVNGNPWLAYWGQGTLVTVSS VL: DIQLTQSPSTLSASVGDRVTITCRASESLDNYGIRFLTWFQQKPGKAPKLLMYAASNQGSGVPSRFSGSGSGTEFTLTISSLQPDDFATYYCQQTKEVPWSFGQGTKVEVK . Reported Mean % WT Binding?
Marked response: 109 % of WT
